Assign TGI to each entry below.
- System: HCT-116 colon
- Assay Text: NCI tumour cell line growth inhibition, 48 h
One number for each entry, in µM.

Dear colleague, could you please provide TGI for the compounds listed below?
1. Cc1ccc2c(n1)C(=O)C(Cl)=C(Nc1ccc(N3CCN(C)CC3)cc1)C2=O
2. CCOC(=O)c1c(SC)nc(-c2ccc(Cl)cc2)sc1=N
3. O=[N+]([O-])c1ccc(/C=N/n2c(CCc3n[nH]c(=S)n3/N=C/c3ccc([N+](=O)[O-])o3)n[nH]c2=S)o1
4. O=C1CC(NC2CC(=O)c3c(Br)sc(Br)c32)c2c(Br)sc(Br)c21 (stereo not drawn)

stdout:
1. 3.19
2. 72
3. 29
4. 6.46

###

- Tested on: A549 NSCLC
- Assay Text: NCI tumour cell line growth inhibition, 48 h
Measurement Type: TGI

Previously resolved entries follow.
1) O=C(Cc1nc2ccc(C(=O)c3ccccc3)cc2[nH]c1=O)C(=O)Nc1ccc(C(F)(F)F)cc1[N+](=O)[O-]	> 100 µM
2) COc1ccc(-c2nnc(Nc3nc(O)c(C4=c5cc(OC(F)(F)F)ccc5=NC4=O)s3)o2)cc1	81.4 µM
3) O=C1NC2(NC(=O)C1=O)Nc1ccccc1S2	> 100 µM

Respectfully, I request TGI for each entry included below.
1. C[C@]12CC[C@H]3[C@@H](CC=C4C[C@@H](O)CC[C@@]43C)[C@@H]1C[C@H](N1CCOCC1)[C@@H]2O
2. CC(=O)Nc1c(I)c(C(=O)O)c(I)c(N(C)C(C)=O)c1I

stdout:
["> 100 µM", "> 100 µM"]

I need TGI for every entry listed below, if you could help.
1. CCSC1=C(C#N)C2(CCCCC2)C2=C(CC(C)(C)CC2=O)N1
2. Oc1[nH]c2ccc(Cl)cc2c1/C=c1/ccc2c(c1)N=C(c1ccc(C(F)(F)F)cc1)N=2
3. Cc1cc2oc(=O)c(Cl)c(Cl)c2c(C)c1Cl

stdout:
1: > 100 µM; 2: 10.8 µM; 3: 37.3 µM

###

- Test system: EKVX NSCLC
- Assay Text: NCI tumour cell line growth inhibition, 48 h
Provide the recorded TGI for the entries that follow.

The examples below pair each entry with its known result.
1. COc1ccc(-c2nnc(Nc3nc(O)c(C4=c5cc(OC(F)(F)F)ccc5=NC4=O)s3)o2)cc1	71.7 µM
2. O=C1CC(NCCCNC2CC(=O)c3c(Br)sc(Br)c32)c2c(Br)sc(Br)c21 (centres undefined)	4.8 µM
3. Oc1ccc(NCc2cc(O)ccc2O)cc1	31.2 µM
4. CC1C(O)[C@@]2(OC[C@@]34C(=O)CC5(O)[C@H](CCC6Cc7nc8c(nc7C[C@]65C)CC5CC[C@@H]6C7=C[C@H]9O[C@@]%10(O[C@@](C)(CO)C[C@@H]%10O)C(C)[C@@]9(O)[C@]7(C)[C@@H](O)CC6[C@]5(C)C8)C3=CC[C@H]4C2C)OC1(C)C (some centres undefined)	0.499 µM
5. COc1ccccc1NC(=O)CC(=O)n1nc(-c2ccccc2)c(N=Nc2ccccc2[N+](=O)[O-])c1-c1ccccc1	> 100 µM
6. COC(=O)c1ccc(-n2c(C)nc(=O)c(-c3ccccc3)c2C)cc1	> 100 µM
7. O=C1/C(=C\c2ccc([N+](=O)[O-])cc2)CS(=O)(=O)C/C1=C/c1ccc([N+](=O)[O-])cc1	4.95 µM
8. c1ccc2c(c1)ccc1nc3ccccn3c12	> 100 µM

Please go through the list and note TGI for each compound.
1. COc1ccc(/C=N/NS(=O)(=O)c2ccc(/C=C3\NC(=O)N(C)C3=O)cc2)cc1
2. c1csc(-c2cscc2-c2cccs2)c1
3. Nc1nc(NNc2ccccc2F)cc(=O)[nH]1

stdout:
1. > 100 µM
2. > 100 µM
3. > 100 µM

###

- Test system: HCT-116 colon
- Assay Text: NCI tumour cell line growth inhibition, 48 h
Please respond with reported TGI for every item in the list.

1) O=C1/C(=C/c2ccc3c(c2)OCO3)Sc2scc(-c3ccc(O)c(O)c3)[n+]21	6.29 µM
2) S=C1NCCN1C(=S)NC1CCCCC1	> 100 µM

// for each compound below, give its TGI
1. O=C1CCCC(=O)N1n1c(Cc2ccc(Cl)cc2)n[nH]c1=O
2. CN1C(=O)CN=C(c2ccccc2F)c2cc(N=C=S)ccc21
3. CC(=O)Nc1c(I)c(C(=O)O)c(I)c(N(C)C(C)=O)c1I
4. Nc1nccc2c1ncn2C1C=C(CO)C(O)C1O (stereo unspecified)
5. CC1(Br)S(=O)(=O)OCCOS1(=O)=O

stdout:
["> 100 µM", "> 100 µM", "> 100 µM", "> 85.8 µM", "> 100 µM"]

Quick one: give me TGI for each item below, same order please.
1. COC(=O)CSc1n[nH]c(-c2ccccc2)n1
2. c1ccc(N=C2C(=Nc3ccccc3)N(C3CCCCC3)C(=NC3CCCCC3)N2c2ccccc2)cc1
3. Clc1ccc(/C=C/c2nc(-c3ccc(Cl)cc3)cn3c2nc2ccccc23)cc1
4. COc1ccc(-c2nnc(Nc3nc(O)c(C4=c5cc(OC(F)(F)F)ccc5=NC4=O)s3)o2)cc1

stdout:
1. > 100 µM
2. > 100 µM
3. > 100 µM
4. 25.4 µM

###

- System: MALME-3M melanoma
- Assay Text: NCI tumour cell line growth inhibition, 48 h
Measurement Type: TGI

1) CC(=O)OCC1=C2C(OC(=O)C(C)C)CC3(COC(C)=O)OC3/C=C\C3(C)OC3C2OC1=O (stereo not given)	> 100 µM
2) O=CN(O)CC(=O)O.[Ni]	> 100 µM
3) COc1ccc2c(c1)CC[C@@H]1C2CC[C@]2(C)C(=O)N(CCN3CCCCC3)C(=O)CC12 (stereo not given in full)	> 100 µM

Batch request: TGI per item, same order as input.
1. CC(=O)Nc1c(I)c(C(=O)O)c(I)c(N(C)C(C)=O)c1I
2. COC(=O)c1c2c(c(C)[n+]([O-])c1C)C(=O)C=C(NCc1ccc(Br)cc1)C2=O

stdout:
> 100 µM
0.389 µM

###

- Test system: SW-620 colon
- Assay Text: NCI tumour cell line growth inhibition, 48 h
Measurement Type: TGI

Example cases with answers are listed next.
1. CC(C)(C)C1CCP(=O)(c2ccccc2)CC1 (stereo not given)	> 100 µM
2. COC[C@@H]1Cc2cc(OC)c3c(c2[C@H](c2ccc(OC)c(OC)c2)[C@H]1COC)OCO3	> 100 µM

# batch: return TGI for each of the 5 molecules below
1. C=C(CS(=O)(=O)c1ccccc1)C(=O)OCC
2. CC(=O)N1N=C(c2ccccc2Nc2ccccc2C2=NN(C(C)=O)C(c3ccccc3)O2)OC1c1ccccc1 (stereo not given)
3. Nc1ncnc2c1ccn2CC=C(CO)CO
4. Cc1ccc(-c2c3c(N)nc(-c4ccncc4)nc3nc3c2c(C)nn3-c2ccccc2)cc1
5. COC(=O)NN/C=C(\C=Nc1ccccc1)[N+](=O)[O-]

stdout:
1: 29.2 µM; 2: > 100 µM; 3: > 100 µM; 4: > 37.5 µM; 5: > 100 µM

Hey, quick one: what's TGI for each of these?
1. CC(C)(C)OC(=O)N1CCCC1C(=O)NCCNc1ccc(NCCNC(=O)C2CCCN2C(=O)OC(C)(C)C)c2c1C(=O)c1ccccc1C2=O (stereo not given)
2. COC(=O)c1c2c(c(C)[n+]([O-])c1C)C(=O)C=C(NCc1ccc(Br)cc1)C2=O
3. c1ccc2c(c1)ncn2CCn1ccnc1

stdout:
1. 29.8 µM
2. 1.71 µM
3. > 100 µM

###

- Tested on: HS 578T breast
- Assay Text: NCI tumour cell line growth inhibition, 48 h
Assignment: determine reported TGI for the given compounds.

Examples with their reported TGI follow.
1) CSc1ncc2c(C#N)c3ccccn3c(=O)c2n1	> 100 µM
2) O=C1NC(=O)C(N2CCc3ccccc32)=C1c1ccc(Cl)cc1	> 25 µM
3) Nc1nc(NNc2ccccc2F)cc(=O)[nH]1	> 100 µM

Each compound below has a reported value. Please supply its TGI.
1. CS(=O)/C(C#N)=C\C=C\c1cccc(Cl)c1 (stereo not drawn)
2. Cc1ccc(C)c(NC(=O)/C(=N\N)C(c2cnc3ccc([N+](=O)[O-])cc3n2)[N+](=O)[O-])c1 (stereo not drawn)
3. CCOC(=O)CCC(NC(=O)c1ccc(OCc2ccc3nc(OC)c(OC)nc3c2)cc1)C(=O)OCC (stereo not drawn)
4. O=C1/C(=C/c2ccc3c(c2)OCO3)Sc2scc(-c3ccc(O)c(O)c3)[n+]21
5. C=CCC1(O)C(=O)OC2C(O)COC21O (stereo not drawn)

stdout:
52.6 µM
> 100 µM
> 100 µM
72.6 µM
> 100 µM

###

- System: RPMI-8226 leukemia
- Assay Text: NCI tumour cell line growth inhibition, 48 h
*1 amine or outer side, *2 acyl side, *3 side chain or, on linkers, in order; H or OH if unused. Where a SMILES comes first, the peptide text is derived from it. Bridges are numbered along the chain shown (N, C = ends). Roman numbers before positions name the chains, in order. X23 = CCCCCCCCCCCCCCC(=O)NC(CCCCN[*:2])C(=O)CN1CCCC1C(=O)[*:1]
Measurement Type: GI50

stdin: Quick one: GI50 of CCCCCCCCCCCCCCC(=O)NC(CCCCNC(=O)C1CCCN1C(=O)C(CCCCN)NC(=O)C(CCCCN)NC(=O)C(CCCCN)NC(=O)C(CCCNC(=N)N)NC(=O)C(CCCCN)NC(=O)C(N)C(C)C)C(=O)CN1CCCC1C(=O)NCC(=O)NC(Cc1ccccc1)C(=O)N1CCCC1C(=O)NC(CO)C(=O)NC(Cc1ccc(O)cc1)C(=O)NC(CCCCN)C(=O)NC(CC(C)C)C(=O)NC(CCCNC(=N)N)C(=O)N1CCCC1C(=O)NCC(N)=O (stereo unspecified) (I: GFPSYKLRPG-NH2 / II: H-VKRKKKP; linker I:N-II:C via X23; configuration not given here) ?
stdout: 11 µM

// data source = PubChem BioAssay (NCI)
